# STUDY_TARGET: HIPK1 (Homo sapiens, UniProt Q86Z02)
# Sequence (Q86Z02 whole entry): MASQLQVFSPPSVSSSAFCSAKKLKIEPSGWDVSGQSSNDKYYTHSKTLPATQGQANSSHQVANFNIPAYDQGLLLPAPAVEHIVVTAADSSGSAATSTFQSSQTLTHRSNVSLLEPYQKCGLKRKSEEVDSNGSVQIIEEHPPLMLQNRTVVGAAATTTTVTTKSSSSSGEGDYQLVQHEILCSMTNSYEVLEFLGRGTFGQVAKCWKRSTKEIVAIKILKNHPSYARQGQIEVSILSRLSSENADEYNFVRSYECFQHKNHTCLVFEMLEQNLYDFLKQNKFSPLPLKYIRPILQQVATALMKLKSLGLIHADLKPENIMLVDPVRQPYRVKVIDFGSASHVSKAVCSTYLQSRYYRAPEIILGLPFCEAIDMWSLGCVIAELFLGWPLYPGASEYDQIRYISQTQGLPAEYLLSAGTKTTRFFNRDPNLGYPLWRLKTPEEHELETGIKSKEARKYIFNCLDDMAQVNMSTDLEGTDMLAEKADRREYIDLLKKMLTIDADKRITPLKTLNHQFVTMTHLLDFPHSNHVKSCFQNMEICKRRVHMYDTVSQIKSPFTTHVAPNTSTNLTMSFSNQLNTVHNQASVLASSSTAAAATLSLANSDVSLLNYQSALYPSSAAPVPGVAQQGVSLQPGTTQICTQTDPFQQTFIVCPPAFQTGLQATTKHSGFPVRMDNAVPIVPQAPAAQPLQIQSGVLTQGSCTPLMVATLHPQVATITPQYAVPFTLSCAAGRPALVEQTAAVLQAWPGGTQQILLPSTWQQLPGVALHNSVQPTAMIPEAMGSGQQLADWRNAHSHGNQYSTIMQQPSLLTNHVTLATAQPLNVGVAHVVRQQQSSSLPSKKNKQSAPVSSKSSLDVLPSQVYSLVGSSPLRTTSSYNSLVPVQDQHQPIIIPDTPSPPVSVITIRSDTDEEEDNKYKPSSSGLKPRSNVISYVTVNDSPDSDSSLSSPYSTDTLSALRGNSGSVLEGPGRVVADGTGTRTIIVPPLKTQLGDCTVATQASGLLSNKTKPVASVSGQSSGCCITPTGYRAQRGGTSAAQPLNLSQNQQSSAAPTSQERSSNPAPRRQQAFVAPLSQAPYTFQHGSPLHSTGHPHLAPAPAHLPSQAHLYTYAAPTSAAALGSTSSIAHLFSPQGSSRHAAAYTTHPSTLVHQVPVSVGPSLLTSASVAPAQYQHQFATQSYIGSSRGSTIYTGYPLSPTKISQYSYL
# PROTOCOL_NOTES: Eurofins enzymatic assay
# Format: biochemical
MEASUREMENT_TYPE: pIC50
A value of pIC50 is the negative decimal logarithm of a concentration given in moles per litre.

Looking for the measured pIC50 of COc1cc(Nc2nccc(-c3cnn4nc(OC)ccc34)n2)cc(C(F)(F)F)c1 [SGC-CLK-1] , can you help?
7.30

----------
# STUDY_TARGET: CLK1 (Homo sapiens)
# Sequence (P49759 whole entry): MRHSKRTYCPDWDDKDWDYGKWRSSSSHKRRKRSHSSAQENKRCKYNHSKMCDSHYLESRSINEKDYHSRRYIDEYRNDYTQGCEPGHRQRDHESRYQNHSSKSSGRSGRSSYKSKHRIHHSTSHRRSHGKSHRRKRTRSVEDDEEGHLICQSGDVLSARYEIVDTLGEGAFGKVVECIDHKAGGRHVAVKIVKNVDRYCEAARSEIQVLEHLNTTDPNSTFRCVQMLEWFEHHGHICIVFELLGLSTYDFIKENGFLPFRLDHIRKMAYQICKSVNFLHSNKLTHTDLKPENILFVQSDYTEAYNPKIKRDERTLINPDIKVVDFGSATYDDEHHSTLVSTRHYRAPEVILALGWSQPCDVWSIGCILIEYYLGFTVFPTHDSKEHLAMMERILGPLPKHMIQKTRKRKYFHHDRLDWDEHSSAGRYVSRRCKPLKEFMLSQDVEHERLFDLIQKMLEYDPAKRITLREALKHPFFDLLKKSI
# PROTOCOL_NOTES: NanoBRET in-cell target engagement
# CONDITIONS_USED: Cellular IC50 (NanoBRET), CLK1, HEK293, Tracer K5
MEASUREMENT_TYPE: pIC50
A value of pIC50 is the negative decimal logarithm of a concentration given in moles per litre.

Please provide the recorded pIC50 for COc1cc(Nc2nccc(-c3cnn4nc(OC)ccc34)n2)cc(C(F)(F)F)c1 , tested on CLK1 (Homo sapiens).
6.81

----------
# STUDY_TARGET: UniProtKB Q9H2X6
# Sequence (Q9H2X6 whole entry): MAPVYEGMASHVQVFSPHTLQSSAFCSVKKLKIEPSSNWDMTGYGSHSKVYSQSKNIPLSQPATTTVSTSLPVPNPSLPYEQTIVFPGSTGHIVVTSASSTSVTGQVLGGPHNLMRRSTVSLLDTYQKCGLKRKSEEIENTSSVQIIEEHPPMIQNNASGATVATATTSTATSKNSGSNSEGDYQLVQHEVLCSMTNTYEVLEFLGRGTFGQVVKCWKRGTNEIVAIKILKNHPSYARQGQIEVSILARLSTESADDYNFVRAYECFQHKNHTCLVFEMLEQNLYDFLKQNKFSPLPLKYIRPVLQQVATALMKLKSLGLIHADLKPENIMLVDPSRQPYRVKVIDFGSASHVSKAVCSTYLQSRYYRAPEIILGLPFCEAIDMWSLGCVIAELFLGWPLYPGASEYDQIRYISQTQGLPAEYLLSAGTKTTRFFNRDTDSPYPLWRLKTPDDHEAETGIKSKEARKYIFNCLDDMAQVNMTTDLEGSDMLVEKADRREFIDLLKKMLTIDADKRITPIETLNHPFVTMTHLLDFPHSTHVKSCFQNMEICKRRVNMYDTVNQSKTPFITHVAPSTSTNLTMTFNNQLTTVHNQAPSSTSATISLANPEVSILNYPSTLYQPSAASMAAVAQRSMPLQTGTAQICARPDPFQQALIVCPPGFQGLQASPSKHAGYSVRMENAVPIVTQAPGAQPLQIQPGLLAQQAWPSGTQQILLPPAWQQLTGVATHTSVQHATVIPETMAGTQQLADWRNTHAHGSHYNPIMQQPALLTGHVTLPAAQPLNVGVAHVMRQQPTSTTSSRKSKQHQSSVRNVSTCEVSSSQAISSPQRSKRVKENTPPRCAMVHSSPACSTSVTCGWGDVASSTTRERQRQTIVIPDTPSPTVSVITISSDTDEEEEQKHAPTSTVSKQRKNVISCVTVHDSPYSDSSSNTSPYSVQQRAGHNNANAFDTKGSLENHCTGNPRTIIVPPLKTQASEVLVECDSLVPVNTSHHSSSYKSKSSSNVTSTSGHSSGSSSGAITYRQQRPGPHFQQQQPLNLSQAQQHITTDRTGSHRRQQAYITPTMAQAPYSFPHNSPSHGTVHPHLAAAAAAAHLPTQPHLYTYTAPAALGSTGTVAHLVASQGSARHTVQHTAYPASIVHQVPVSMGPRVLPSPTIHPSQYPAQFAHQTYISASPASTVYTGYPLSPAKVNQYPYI
# PROTOCOL_NOTES: Eurofins enzymatic assay
# Format: biochemical
MEASUREMENT_TYPE: IC50 (nM)
Report as a plain number; the unit nM is understood.

Looking for the measured IC50 of COc1cc(Nc2nccc(-c3cnn4nc(OC)ccc34)n2)cc(C(F)(F)F)c1 [SGC-CLK-1] , can you help?
42
